Target: LY6C1 (Ly6c1, C57BL/6J mouse, splice variant 1) (mouse (C57BL/6J)) (UniProt P0CW02)
Test: AAV library bound to Ly6c1-transfected HEK293T cells, NGS
Response key: yes (1) means fold enrichment (log2) >= 4 log2; no (0) means fold enrichment (log2) < 4 log2.

{"Substance": "AAV9 K449R 7-mer variant SLDFKNI", "Discrete label": "no (0)"}
{"Substance": "AAV9 K449R 7-mer variant FRIGGSS", "Discrete label": "yes (1)"}
{"Substance": "AAV9 K449R 7-mer variant NGYKGST", "Discrete label": "yes (1)"}
{"Substance": "AAV9 K449R 7-mer variant STRGYSA", "Discrete label": "no (0)"}
{"Substance": "AAV9 K449R 7-mer variant LRMGASS", "Discrete label": "yes (1)"}
{"Substance": "AAV9 K449R 7-mer variant SYIGASS", "Discrete label": "yes (1)"}
{"Substance": "AAV9 K449R 7-mer variant GSERPFL", "Discrete label": "no (0)"}
{"Substance": "AAV9 K449R 7-mer variant TKSGYST", "Discrete label": "yes (1)"}
{"Substance": "AAV9 K449R 7-mer variant GKHFSST", "Discrete label": "yes (1)"}
{"Substance": "AAV9 K449R 7-mer variant VNRGYSS", "Discrete label": "yes (1)"}
{"Substance": "AAV9 K449R 7-mer variant TITFKDV", "Discrete label": "no (0)"}
{"Substance": "AAV9 K449R 7-mer variant VAERPFK", "Discrete label": "no (0)"}
{"Substance": "AAV9 K449R 7-mer variant RATGYSS", "Discrete label": "yes (1)"}
{"Substance": "AAV9 K449R 7-mer variant LSKGLSS", "Discrete label": "no (0)"}
{"Substance": "AAV9 K449R 7-mer variant GKTHGYS", "Discrete label": "no (0)"}
{"Substance": "AAV9 K449R 7-mer variant YVGNPFK", "Discrete label": "no (0)"}
{"Substance": "AAV9 K449R 7-mer variant TVTGYSS", "Discrete label": "no (0)"}
{"Substance": "AAV9 K449R 7-mer variant AKAGYAS", "Discrete label": "yes (1)"}
{"Substance": "AAV9 K449R 7-mer variant LLRGASS", "Discrete label": "no (0)"}
{"Substance": "AAV9 K449R 7-mer variant VRPGWST", "Discrete label": "yes (1)"}
{"Substance": "AAV9 K449R 7-mer variant YLKGYSA", "Discrete label": "yes (1)"}
{"Substance": "AAV9 K449R 7-mer variant AGSFKDI", "Discrete label": "no (0)"}
{"Substance": "AAV9 K449R 7-mer variant YENRPFV", "Discrete label": "no (0)"}
{"Substance": "AAV9 K449R 7-mer variant QDKGYSS", "Discrete label": "no (0)"}

###

Biological target: LY6A (Ly6a, C57BL/6J mouse) (mouse (C57BL/6J)) (UniProt P05533)
Assay: AAV library bound to Ly6a-transfected HEK293T cells, NGS
Response field label: string, one of yes (1) (fold enrichment (log2) strictly below 0.7 log2) or no (0).

{"Substance": "AAV9 K449R 7-mer variant QHFGQSS", "Discrete label": "yes (1)"}
{"Substance": "AAV9 K449R 7-mer variant LAHTYSS", "Discrete label": "yes (1)"}
{"Substance": "AAV9 K449R 7-mer variant GNENFSS", "Discrete label": "yes (1)"}
{"Substance": "AAV9 K449R 7-mer variant TSMKPFL", "Discrete label": "no (0)"}
{"Substance": "AAV9 K449R 7-mer variant HEHRYST", "Discrete label": "yes (1)"}
{"Substance": "AAV9 K449R 7-mer variant GVDRPFK", "Discrete label": "no (0)"}
{"Substance": "AAV9 K449R 7-mer variant ALHVPFK", "Discrete label": "no (0)"}
{"Substance": "AAV9 K449R 7-mer variant TDTRPFI", "Discrete label": "no (0)"}
{"Substance": "AAV9 K449R 7-mer variant LKKGYST", "Discrete label": "no (0)"}
{"Substance": "AAV9 K449R 7-mer variant GSYGYSS", "Discrete label": "yes (1)"}
{"Substance": "AAV9 K449R 7-mer variant YENRPFV", "Discrete label": "no (0)"}
{"Substance": "AAV9 K449R 7-mer variant TVMAPFK", "Discrete label": "no (0)"}
{"Substance": "AAV9 K449R 7-mer variant NLKRPFA", "Discrete label": "no (0)"}
{"Substance": "AAV9 K449R 7-mer variant HTQGYST", "Discrete label": "yes (1)"}
{"Substance": "AAV9 K449R 7-mer variant LNRGSST", "Discrete label": "no (0)"}
{"Substance": "AAV9 K449R 7-mer variant QSAGYST", "Discrete label": "yes (1)"}

###

Molecular target: LY6A (Ly6a, C57BL/6J mouse) (mouse (C57BL/6J))
Experiment: AAV library bound to Ly6a-transfected HEK293T cells, NGS

{"Substance": "AAV9 K449R 7-mer variant QNARPFV", "fold enrichment (log2)": "1.52 log2"}
{"Substance": "AAV9 K449R 7-mer variant ESTRPFK", "fold enrichment (log2)": "2.87 log2"}
{"Substance": "AAV9 K449R 7-mer variant SQKTPFL", "fold enrichment (log2)": "3.81 log2"}
{"Substance": "AAV9 K449R 7-mer variant IATGYSQ", "fold enrichment (log2)": "-3.74 log2"}
{"Substance": "AAV9 K449R 7-mer variant LYAGRSS", "fold enrichment (log2)": "1.03 log2"}
{"Substance": "AAV9 K449R 7-mer variant YLKGYSA", "fold enrichment (log2)": "0.15 log2"}
{"Substance": "AAV9 K449R 7-mer variant GDNRPFK", "fold enrichment (log2)": "2.65 log2"}
{"Substance": "AAV9 K449R 7-mer variant DKQKPFL", "fold enrichment (log2)": "4.6 log2"}
{"Substance": "AAV9 K449R 7-mer variant SEGRPFI", "fold enrichment (log2)": "1.85 log2"}
{"Substance": "AAV9 K449R 7-mer variant FRIGGSS", "fold enrichment (log2)": "1.34 log2"}
{"Substance": "AAV9 K449R 7-mer variant VNRGYSS", "fold enrichment (log2)": "0.89 log2"}
{"Substance": "AAV9 K449R 7-mer variant SINKPFV", "fold enrichment (log2)": "4.74 log2"}
{"Substance": "AAV9 K449R 7-mer variant RIDNPFK", "fold enrichment (log2)": "4.48 log2"}
{"Substance": "AAV9 K449R 7-mer variant LRGGYST", "fold enrichment (log2)": "-3.32 log2"}
{"Substance": "AAV9 K449R 7-mer variant TKYMHSS", "fold enrichment (log2)": "1.35 log2"}
{"Substance": "AAV9 K449R 7-mer variant NRGGYAS", "fold enrichment (log2)": "-0.18 log2"}
{"Substance": "AAV9 K449R 7-mer variant MNIGYSA", "fold enrichment (log2)": "-1.48 log2"}
{"Substance": "AAV9 K449R 7-mer variant TRDLPFK", "fold enrichment (log2)": "4.34 log2"}
{"Substance": "AAV9 K449R 7-mer variant RATGYSS", "fold enrichment (log2)": "2.49 log2"}
{"Substance": "AAV9 K449R 7-mer variant MRTLMSS", "fold enrichment (log2)": "-0.52 log2"}
{"Substance": "AAV9 K449R 7-mer variant DRKGYSA", "fold enrichment (log2)": "-0.39 log2"}
{"Substance": "AAV9 K449R 7-mer variant SKTGYST", "fold enrichment (log2)": "-3.55 log2"}
{"Substance": "AAV9 K449R 7-mer variant SYQGYSS", "fold enrichment (log2)": "1.47 log2"}
{"Substance": "AAV9 K449R 7-mer variant TRFGSST", "fold enrichment (log2)": "1.29 log2"}
{"Substance": "AAV9 K449R 7-mer variant NKVGYST", "fold enrichment (log2)": "-3.74 log2"}
{"Substance": "AAV9 K449R 7-mer variant TVTGYSS", "fold enrichment (log2)": "-3.91 log2"}
